dMFI listing for selected binders.
- MEASURED ON: T1, mouse IL-12Rβ2 expressed on cells (mouse, UniProt P97378 24-874)
- T1 construct: HEK293T cells, stably transduced (cDNA NM_008354); also called mIL-12RB2
- T1 sequence: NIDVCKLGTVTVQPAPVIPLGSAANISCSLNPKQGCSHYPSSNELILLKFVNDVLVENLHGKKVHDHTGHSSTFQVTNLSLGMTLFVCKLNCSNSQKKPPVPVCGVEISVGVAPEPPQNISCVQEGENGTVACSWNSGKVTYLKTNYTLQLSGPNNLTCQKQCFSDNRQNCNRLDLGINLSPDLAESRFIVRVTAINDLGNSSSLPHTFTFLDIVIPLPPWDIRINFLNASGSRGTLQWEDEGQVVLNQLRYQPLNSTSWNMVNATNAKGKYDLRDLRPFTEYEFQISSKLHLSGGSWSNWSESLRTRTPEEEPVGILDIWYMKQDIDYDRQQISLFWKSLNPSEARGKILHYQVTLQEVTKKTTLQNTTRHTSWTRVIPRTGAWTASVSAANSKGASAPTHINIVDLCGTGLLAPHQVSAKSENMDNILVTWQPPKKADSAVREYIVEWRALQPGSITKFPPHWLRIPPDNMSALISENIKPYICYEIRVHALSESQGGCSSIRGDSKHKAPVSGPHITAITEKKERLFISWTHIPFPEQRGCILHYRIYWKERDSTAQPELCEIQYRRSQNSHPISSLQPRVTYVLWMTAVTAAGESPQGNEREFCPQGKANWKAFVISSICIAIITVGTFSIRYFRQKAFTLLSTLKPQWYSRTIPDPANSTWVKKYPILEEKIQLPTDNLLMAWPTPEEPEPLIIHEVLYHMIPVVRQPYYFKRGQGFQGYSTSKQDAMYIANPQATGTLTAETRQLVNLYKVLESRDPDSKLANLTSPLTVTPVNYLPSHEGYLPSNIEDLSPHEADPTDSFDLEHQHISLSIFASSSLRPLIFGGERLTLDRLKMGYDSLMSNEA
- EXPERIMENTAL DETAILS: flow cytometry, P.E. VHH on HEK293T cells expressing mIL-12RB2
Would you mind answering with just the numeric figure?

Req: Look up dMFI for this binder: anti-IL-12Rβ2 VHH clone 3CAM57 (VHH, not shown: small tags and cut ends, tested as periplasmic extract; also called 20512; 3CAMS7) VHH: QVQLQESGGGLVQAGGSLRLSCTPSGRTFSTLAMGWFRQAPGKEREVVATISWSGGRTYYASSVKSRFTISRDNAKNTAYLQMNSLRPDDTAVYYCAARGTDYGAYDYWGQGTQVTVSS
Resp: 351

Req: Please look up its dMFI: anti-IL-12Rβ2 VHH clone 3CAM65 (VHH, not shown: small tags and cut ends, tested as periplasmic extract; also called 20513) VHH: QVQLQESGGGLVQAGGSLRLSCAPSGRTFTTYVMGWFRQAPGKEREFVAHISWSGGRTYYADSVKGRFTISRDNAKNTSYLQMNSLKPEDTAVYYCAAARSDAVRIGYAEGYEYWGQGTQVTVSS
Resp: 315

Req: So what's the measured dMFI for this one? anti-IL-12Rβ2 VHH clone 2CAMS52 (VHH, not shown: small tags and cut ends, tested as periplasmic extract; also called 20535; 2CAMSSZ) VHH: QVQLQESGGGLVQPGASLRLSCATSGPTLSTYAMGWFRQAPGKEREVVATISWSGGRVTYVDSVKGRFTISRDNAKNTAYLQMNRLRPDDTAVYTCAARESDYGAYDYWGQGTQVTVSS
Resp: 342

Req: // returns reported dMFI for input anti-IL-12Rβ2 VHH clone 3CAM1 (VHH, not shown: small tags and cut ends, tested as periplasmic extract) VHH: QVQLQESGGGLVQAGGSLRLSCAASGRTFGSHRMGWFRQAPGQEREFVAAIAWRGGTQYYTDSVKGRFTISRDNANNTVYLQMNSLKPEDAAVYYCVAGEGSSWGDITDPRRYVFWGQGTQVTVSS
Resp: 376

# credit: patent US20260209362A1
